Sourced from patent US7888386B2

# target: hNET (Homo sapiens)
# Construct: expressed in transfected cells; host or cells: HEK-293 derived cell line, stably transfected; membrane preparation
# Sequence (P23975 whole entry): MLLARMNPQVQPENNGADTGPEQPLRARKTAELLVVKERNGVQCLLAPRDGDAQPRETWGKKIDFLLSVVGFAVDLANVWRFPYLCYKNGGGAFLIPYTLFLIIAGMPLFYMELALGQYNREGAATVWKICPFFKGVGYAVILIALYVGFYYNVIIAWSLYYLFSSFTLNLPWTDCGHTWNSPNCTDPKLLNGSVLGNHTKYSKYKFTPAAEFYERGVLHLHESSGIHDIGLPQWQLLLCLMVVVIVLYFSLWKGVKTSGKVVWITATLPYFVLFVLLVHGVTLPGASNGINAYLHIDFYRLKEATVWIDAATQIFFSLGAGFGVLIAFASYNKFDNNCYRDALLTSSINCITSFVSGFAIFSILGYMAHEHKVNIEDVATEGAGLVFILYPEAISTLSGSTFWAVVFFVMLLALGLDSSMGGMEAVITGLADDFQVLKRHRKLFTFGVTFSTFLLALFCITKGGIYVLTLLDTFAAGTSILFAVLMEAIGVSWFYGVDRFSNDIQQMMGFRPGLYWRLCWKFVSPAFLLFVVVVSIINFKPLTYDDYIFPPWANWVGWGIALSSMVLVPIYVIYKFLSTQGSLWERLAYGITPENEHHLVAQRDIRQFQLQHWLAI
# protocol description: hNET binding assay (Assay 1)
# test context: hNET binding; read-out: NET pKi (converted)
Would you kindly list Ki for each of these molecules?
Lab note: write values as number then unit, every time.

Request: Can you look up the measured Ki of Fc1ccc(Cl)c(F)c1OC(c1ccccc1)C1CCNC1 (centres unmarked) [40-15] for me?
Result: 0.251 nM

Request: Can you look up the measured Ki of Fc1cc(F)cc(C(Oc2c(F)ccc(F)c2Cl)C2CCNC2)c1 (centres unmarked) [41-30] for me?
Result: 0.2 nM

Request: Can you look up the measured Ki of COc1ccc(F)c(OC(c2ccccc2)C2CCNC2)c1Cl (centres unmarked) [40-35] for me?
Result: 0.398 nM

Request: Can you look up the measured Ki of COc1cc(Cl)c(F)cc1OC(c1ccccc1)C1CCNC1 (centres unmarked) [42-8] for me?
Result: 1.26 nM

Request: Can you look up the measured Ki of Fc1cc(F)cc(C(Oc2cc(Cl)cc(Cl)c2Cl)C2CCNC2)c1 (centres unmarked) [39-5] for me?
Result: 3.16 nM

Request: Can you look up the measured Ki of Clc1cc(Cl)c(Cl)c(O[C@H](c2ccccc2Cl)[C@@H]2CCNC2)c1 (racemic) [39-4] for me?
Result: 3.98 nM

Request: Can you look up the measured Ki of Clc1cc(Cl)cc(OC(c2ccccc2Cl)C2CCNC2)c1 (centres unmarked) [35-3] for me?
Result: 3.16 nM

Request: Can you look up the measured Ki of NC(=O)c1cccc(C(Oc2c(F)ccc(F)c2Cl)C2CCNC2)c1 (centres unmarked) [41-36] for me?
Result: 1 nM

Request: Can you look up the measured Ki of Cc1ccc(F)c(O[C@@H](c2ccccc2)[C@H]2CCNC2)c1Cl [Ex. 13] for me?
Result: 0.251 nM

Request: Can you look up the measured Ki of Cc1ccc(Cl)c(OC(c2cccc(C#N)c2)C2CCNC2)c1Cl (centres unmarked) [41-14] for me?
Result: 0.631 nM

Request: Can you look up the measured Ki of COc1ccc(F)c(Cl)c1O[C@@H](c1ccccc1)[C@H]1CCNC1 [40-22] for me?
Result: 0.631 nM

Request: Can you look up the measured Ki of Cc1ccc(Cl)c(O[C@@H](c2cc(F)cc(F)c2)[C@H]2CCNC2)c1Cl [41-27] for me?
Result: 0.794 nM

Request: Can you look up the measured Ki of N#Cc1cccc([C@@H](Oc2c(F)ccc(F)c2Cl)[C@@H]2CCNC2)c1 [41-33] for me?
Result: 0.794 nM

Request: Can you look up the measured Ki of Fc1cc(F)cc(C(Oc2cc(Cl)cc(Cl)c2)C2CCNC2)c1 (centres unmarked) [35-14] for me?
Result: 2 nM

Request: Can you look up the measured Ki of Fc1cc(F)cc([C@@H](Oc2cc(Cl)cc(Cl)c2)[C@@H]2CCNC2)c1 [35-17] for me?
Result: 1.58 nM

Request: Can you look up the measured Ki of Fc1cc(F)cc(C(Oc2cc(F)c(F)cc2F)C2CCNC2)c1 (centres unmarked) [43-1] for me?
Result: 2 nM

Request: Can you look up the measured Ki of Fc1ccc(C(Oc2cc(Cl)cc(Cl)c2)C2CCNC2)cc1 (centres unmarked) [35-9] for me?
Result: 7.94 nM

Request: Can you look up the measured Ki of Cc1ccc(Cl)c(O[C@H](c2cccc(CO)c2)[C@H]2CCNC2)c1Cl [41-17] for me?
Result: 1 nM

Request: Can you look up the measured Ki of Cc1ccc(Cl)c(OC(c2cc(F)cc(Cl)c2)C2CCNC2)c1Cl (centres unmarked) [41-24] for me?
Result: 1 nM

Request: Can you look up the measured Ki of COc1ccc(F)c(OC(c2ccccc2)C2CCNC2)c1F (centres unmarked) [40-4] for me?
Result: 0.631 nM

---

# target: hNET (Homo sapiens)
# Construct: expressed in transfected cells; host or cells: HEK-293 derived cell line, stably transfected; membrane preparation
# protocol description: hNET binding assay (Assay 1)
# test context: membranes of HEK-293 cells expressing hNET, 1.0 nM 3H-nisoxetine; read-out: NET pKi (converted)
Would you kindly list Ki for each of these compounds?
Lab note: write values as number then unit, every time.

Request: Requested read-out Ki, target or system hNET (Homo sapiens), entry c1ccc(Cc2ccccc2OC(c2ccccc2)C2CCNC2)cc1 (centres unmarked) [Compound 19-20]
Result: 7.94 nM

Request: Requested read-out Ki, target or system hNET (Homo sapiens), entry Brc1ccccc1OC(c1ccccc1)C1CCNC1 (centres unmarked)
Result: 1 nM

Request: Requested read-out Ki, target or system hNET (Homo sapiens), entry COc1cccc(C(Oc2ccccc2C(C)C)C2CCNC2)c1 (centres unmarked)
Result: 5.01 nM

Request: Requested read-out Ki, target or system hNET (Homo sapiens), entry CSc1ccccc1OC(c1ccccc1)C1CCNC1 (centres unmarked) [Compound 19-30]
Result: 0.398 nM

Request: Requested read-out Ki, target or system hNET (Homo sapiens), entry FC(F)(F)c1ccccc1OC(c1ccccc1)C1CCNC1 (centres unmarked)
Result: 2.51 nM

Request: Requested read-out Ki, target or system hNET (Homo sapiens), entry CC(C)Oc1ccccc1OC(c1ccccc1)C1CCNC1 (centres unmarked)
Result: 3.16 nM

Request: Requested read-out Ki, target or system hNET (Homo sapiens), entry Cc1c(F)cccc1OC(c1ccccc1)C1CCNC1 (racemic)
Result: 2.51 nM

Request: Requested read-out Ki, target or system hNET (Homo sapiens), entry COc1ccccc1OC(c1cc(F)cc(Cl)c1)C1CCNC1 (centres unmarked)
Result: 0.631 nM

Request: Requested read-out Ki, target or system hNET (Homo sapiens), entry CC(C)c1ccccc1OC(c1cccc(F)c1)C1CCNC1 (centres unmarked)
Result: 5.01 nM

Request: Requested read-out Ki, target or system hNET (Homo sapiens), entry CCC(=O)c1ccccc1OC(c1ccccc1)C1CCNC1 (centres unmarked) [Compound 19-26]
Result: 3.98 nM

Request: Requested read-out Ki, target or system hNET (Homo sapiens), entry COc1ccccc1OC(c1cccc(F)c1)C1CCNC1 (centres unmarked)
Result: 5.01 nM

Request: Requested read-out Ki, target or system hNET (Homo sapiens), entry CC(C)c1ccccc1OC(c1cccc(Cl)c1)C1CCNC1 (centres unmarked)
Result: 5.01 nM

Request: Requested read-out Ki, target or system hNET (Homo sapiens), entry CC(C)c1ccccc1OC(c1ccccc1)C1CCNC1 (centres unmarked)
Result: 2 nM

Request: Requested read-out Ki, target or system hNET (Homo sapiens), entry Fc1cccc(OC(c2ccccc2)C2CCNC2)c1 (centres unmarked)
Result: 3.98 nM

Request: Requested read-out Ki, target or system hNET (Homo sapiens), entry COc1ccccc1OC(c1cccc(C(N)=O)c1)C1CCNC1 (centres unmarked)
Result: 2.51 nM

Request: Requested read-out Ki, target or system hNET (Homo sapiens), entry Ic1ccccc1OC(c1ccccc1)C1CCNC1 (centres unmarked)
Result: 1 nM

Request: Requested read-out Ki, target or system hNET (Homo sapiens), entry COc1ccccc1OC(c1cccc(CO)c1)C1CCNC1 (centres unmarked)
Result: 3.98 nM

Request: Requested read-out Ki, target or system hNET (Homo sapiens), entry Cc1ccc(OC(c2ccccc2)C2CCNC2)cc1 (centres unmarked)
Result: 6.31 nM

Request: Requested read-out Ki, target or system hNET (Homo sapiens), entry c1ccc(COc2ccc(OC(c3ccccc3)C3CCNC3)cc2)cc1 (centres unmarked)
Result: 7.94 nM

Request: Requested read-out Ki, target or system hNET (Homo sapiens), entry COc1ccccc1O[C@@H](c1cc(C)cc(F)c1)[C@@H]1CCNC1 (racemic)
Result: 6.31 nM

---

Would you kindly list SERT Ki/NET Ki for each of these compounds?
# target: hSERT (Homo sapiens)
# Construct: expressed in transfected cells; host or cells: HEK-293 derived cell line, stably transfected; membrane preparation
# Sequence (P31645 whole entry): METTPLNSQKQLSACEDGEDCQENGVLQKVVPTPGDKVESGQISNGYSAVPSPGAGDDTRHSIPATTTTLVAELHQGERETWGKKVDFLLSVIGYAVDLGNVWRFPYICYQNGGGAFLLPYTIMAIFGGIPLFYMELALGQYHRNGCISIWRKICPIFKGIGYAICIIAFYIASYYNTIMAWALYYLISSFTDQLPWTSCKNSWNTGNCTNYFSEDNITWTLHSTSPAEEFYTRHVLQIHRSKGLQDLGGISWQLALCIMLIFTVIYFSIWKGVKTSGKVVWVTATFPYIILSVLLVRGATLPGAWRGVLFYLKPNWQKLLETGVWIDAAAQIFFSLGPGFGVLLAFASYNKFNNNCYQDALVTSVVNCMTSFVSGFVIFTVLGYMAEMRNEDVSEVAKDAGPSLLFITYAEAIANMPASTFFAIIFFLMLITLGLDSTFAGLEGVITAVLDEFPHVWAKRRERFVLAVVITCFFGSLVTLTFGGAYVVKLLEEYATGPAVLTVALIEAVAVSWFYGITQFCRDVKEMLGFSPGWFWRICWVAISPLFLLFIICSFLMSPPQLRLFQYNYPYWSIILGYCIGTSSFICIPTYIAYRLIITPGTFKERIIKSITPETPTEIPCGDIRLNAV
# protocol description: hSERT binding assay (Assay 1)
# test context: ratio of SERT Ki to NET Ki (binding)
In your answer, state the number alone without any accompanying words.

Request: Can you look up the measured SERT Ki/NET Ki of Cc1cc(F)cc([C@@H](Oc2c(Cl)ccc(C)c2Cl)[C@@H]2CCNC2)c1 (racemic) for me?
Result: 0.5

Request: Can you look up the measured SERT Ki/NET Ki of Fc1cc(F)cc(C(Oc2c(Cl)ccc(Cl)c2Cl)C2CCNC2)c1 (stereo not shown) [41-11] for me?
Result: 0.8

Request: Can you look up the measured SERT Ki/NET Ki of Clc1cc(Cl)c(Cl)c(O[C@H](c2ccccc2Cl)[C@@H]2CCNC2)c1 (racemic) for me?
Result: 0.1

Request: Can you look up the measured SERT Ki/NET Ki of Cc1cc(Cl)c(OC(c2ccccc2)C2CCNC2)cc1F (stereo not shown) for me?
Result: 0.5

Request: Can you look up the measured SERT Ki/NET Ki of Cc1ccc(F)c(OC(c2cc(F)cc(F)c2)C2CCNC2)c1Cl (stereo not shown) [41-28] for me?
Result: 6.3

Request: Can you look up the measured SERT Ki/NET Ki of NC(=O)c1cccc(C(Oc2c(F)ccc(F)c2Cl)C2CCNC2)c1 (stereo not shown) [41-38] for me?
Result: 0.1

Request: Can you look up the measured SERT Ki/NET Ki of Fc1cc(F)cc([C@@H](Oc2c(F)ccc(F)c2Cl)[C@@H]2CCNC2)c1 for me?
Result: 0.6

Request: Can you look up the measured SERT Ki/NET Ki of Fc1cc(F)cc(C(Oc2cc(Cl)cc(Cl)c2Cl)C2CCNC2)c1 (stereo not shown) for me?
Result: 0.2

Request: Can you look up the measured SERT Ki/NET Ki of Cc1ccc(C(Oc2cc(Cl)cc(Cl)c2)C2CCNC2)cc1 (stereo not shown) for me?
Result: 0.1

Request: Can you look up the measured SERT Ki/NET Ki of Fc1cc(F)c(F)c(OC(c2ccccc2)C2CCNC2)c1 (stereo not shown) for me?
Result: 10
